# target-under-test: human glucagon-like peptide-1 receptor (GLP-1R) (Homo sapiens)
# Construct: host or cells: CHO chAMPion cells
# Sequence (P43220 24-463): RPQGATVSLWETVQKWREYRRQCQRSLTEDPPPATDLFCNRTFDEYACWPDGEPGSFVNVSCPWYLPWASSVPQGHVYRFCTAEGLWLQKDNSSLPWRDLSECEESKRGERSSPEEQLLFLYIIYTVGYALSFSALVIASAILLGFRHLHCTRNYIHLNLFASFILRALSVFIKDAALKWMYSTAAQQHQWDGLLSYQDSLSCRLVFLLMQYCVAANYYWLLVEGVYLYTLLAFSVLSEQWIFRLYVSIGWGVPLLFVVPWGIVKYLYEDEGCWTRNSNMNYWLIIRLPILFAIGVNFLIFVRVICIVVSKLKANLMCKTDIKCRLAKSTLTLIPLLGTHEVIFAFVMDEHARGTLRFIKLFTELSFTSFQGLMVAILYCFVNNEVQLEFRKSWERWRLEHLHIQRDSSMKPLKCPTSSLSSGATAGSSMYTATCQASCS
# test-name: Human GLP-1 receptor cell-based assay (flash luminescence, Target Activation phase)
# conditions: CHO chAMPion cells stably co-expressing human GLP-1R, Photina and cAMP-activated calcium channel; agonist activity; normalization by forskolin at 10 μM; ^a) values from single experiment; read-out: EC50 (μM) Target Activation (TA)
Where a SMILES comes first, the peptide text is derived from it. [ ]: non-standard residue; d: D form. Trp(5-OH) = N[C@@H](Cc1c[nH]c2ccc(O)cc12)C(=O)O; Ac6c = NC1(C(=O)O)CCCCC1
Readings of EC50 for the listed molecules

{"columns": ["molecule", "target-under-test", "uom", "EC50"],
 "data": [
  ["C[C@@H]1NC(=O)[C@H](Cc2ccc(O)cc2)NC(=O)[C@H](CCC(N)=O)NC(=O)[C@H](Cc2c[nH]c3ccc(O)cc23)NC(=O)[C@H](Cc2ccccc2)NC(=O)C2(CCCCC2)NC(=O)[C@H]2CCCN2C(=O)[C@H](Cc2ccc(O)cc2)NC(=O)[C@H](CCC(=O)O)NC(=O)[C@H](Cc2c[nH]c3ccccc23)NC1=O [compound 35] (cyclo(F[Trp(5-OH)]QYAWEY[dP][Ac6c]))", "human glucagon-like peptide-1 receptor (GLP-1R) (Homo sapiens)", "µM", 1.1],
  ["C[C@@H]1NC(=O)[C@H](Cc2ccc(O)cc2)NC(=O)[C@H](CCC(N)=O)NC(=O)[C@H](Cc2ccccc2)NC(=O)[C@H](Cc2ccccc2)NC(=O)C2(CCCCC2)NC(=O)[C@H]2CCCN2C(=O)[C@H](CCCNC(=N)N)NC(=O)[C@H](CCC(=O)O)NC(=O)[C@H](Cc2c[nH]c3ccccc23)NC1=O [compound 10] (cyclo(FFQYAWER[dP][Ac6c]))", "human glucagon-like peptide-1 receptor (GLP-1R) (Homo sapiens)", "µM", 0.39],
  ["CC(C)C[C@@H]1NC(=O)[C@H](CCC(=O)O)NC(=O)[C@H](Cc2ccccc2)NC(=O)C2(CCCCC2)NC(=O)[C@H]2CCCN2C(=O)[C@H](Cc2c[nH]c3ccccc23)NC(=O)[C@H](CCC(=O)O)NC(=O)[C@H](Cc2c[nH]c3ccccc23)NC(=O)[C@H](C)NC(=O)[C@H](Cc2ccc(O)cc2)NC1=O [compound 16] (cyclo(FELYAWEW[dP][Ac6c]))", "human glucagon-like peptide-1 receptor (GLP-1R) (Homo sapiens)", "µM", 0.41]
]}

---

# target-under-test: human glucagon-like peptide-1 receptor (GLP-1R) (Homo sapiens)
# Construct: host or cells: CHO chAMPion cells
# test-name: Human GLP-1 receptor cell-based assay (flash luminescence, Target Activation phase)
# conditions: CHO chAMPion cells stably co-expressing human GLP-1R, Photina and cAMP-activated calcium channel; agonist activity; normalization by forskolin at 10 μM; ^a) values from single experiment; read-out: EC50 (μM) Target Activation (TA)
Where a SMILES comes first, the peptide text is derived from it. [ ]: non-standard residue; d: D form. Tyr(Ph) = N[C@@H](Cc1ccc(Oc2ccccc2)cc1)C(=O)O; His(π-Bn) = N[C@@H](Cc1cncn1Cc1ccccc1)C(=O)O; 3Pal = N[C@@H](Cc1cccnc1)C(=O)O; 4Pal = N[C@@H](Cc1ccncc1)C(=O)O; Phg = N[C@H](C(=O)O)c1ccccc1; Ac6c = NC1(C(=O)O)CCCCC1
EC50 under 0.2 µM gets met, anything at or over 0.2 µM gets not met.

{"columns": ["molecule", "target-under-test", "group-label"],
 "data": [
  ["C[C@@H]1NC(=O)[C@H](Cc2ccc(O)cc2)NC(=O)[C@H](CCC(N)=O)NC(=O)[C@H](Cc2ccc(Oc3ccccc3)cc2)NC(=O)[C@H](Cc2ccccc2)NC(=O)C2(CCCCC2)NC(=O)[C@H]2CCCN2C(=O)[C@H](CCCNC(=N)N)NC(=O)[C@H](CCC(=O)O)NC(=O)[C@H](Cc2c[nH]c3ccccc23)NC1=O [compound 6] (cyclo(F[Tyr(Ph)]QYAWER[dP][Ac6c]))", "human glucagon-like peptide-1 receptor (GLP-1R) (Homo sapiens)", "met"],
  ["C[C@@H]1NC(=O)[C@H](Cc2ccc(O)cc2)NC(=O)[C@H](CCC(N)=O)NC(=O)[C@H](Cc2cncn2Cc2ccccc2)NC(=O)[C@H](Cc2ccccc2)NC(=O)C2(CCCCC2)NC(=O)[C@H]2CCCN2C(=O)[C@H](Cc2ccc(O)cc2)NC(=O)[C@H](CCC(=O)O)NC(=O)[C@H](Cc2c[nH]c3ccccc23)NC1=O [Ex. 4] (cyclo(F[His(π-Bn)]QYAWEY[dP][Ac6c]))", "human glucagon-like peptide-1 receptor (GLP-1R) (Homo sapiens)", "met"],
  ["C[C@@H]1NC(=O)[C@H](Cc2ccc(O)cc2)NC(=O)[C@H](CCC(N)=O)NC(=O)[C@H](Cc2c[nH]c3ccccc23)NC(=O)[C@H](Cc2ccccc2)NC(=O)C2(CCCCC2)NC(=O)[C@H]2CCCN2C(=O)[C@H](Cc2cncn2Cc2ccccc2)NC(=O)[C@H](CCC(=O)O)NC(=O)[C@H](Cc2c[nH]c3ccccc23)NC1=O [compound 15] (cyclo(FWQYAWE[His(π-Bn)][dP][Ac6c]))", "human glucagon-like peptide-1 receptor (GLP-1R) (Homo sapiens)", "not met"],
  ["C[C@@H]1NC(=O)[C@H](Cc2ccc(O)cc2)NC(=O)[C@H](CCC(N)=O)NC(=O)[C@H](Cc2ccncc2)NC(=O)[C@H](Cc2ccccc2)NC(=O)C2(CCCCC2)NC(=O)[C@H]2CCCN2C(=O)[C@H](Cc2ccc(O)cc2)NC(=O)[C@H](CCC(=O)O)NC(=O)[C@H](Cc2c[nH]c3ccccc23)NC1=O [compound 33] (cyclo(F[4Pal]QYAWEY[dP][Ac6c]))", "human glucagon-like peptide-1 receptor (GLP-1R) (Homo sapiens)", "not met"],
  ["CC(C)C[C@@H]1NC(=O)[C@H](CCC(=O)O)NC(=O)[C@H](Cc2ccccc2)NC(=O)C2(CCCCC2)NC(=O)[C@H]2CCCN2C(=O)[C@H](Cc2cccnc2)NC(=O)[C@H](CCC(=O)O)NC(=O)[C@H](Cc2c[nH]c3ccccc23)NC(=O)[C@H](C)NC(=O)[C@H](Cc2ccc(O)cc2)NC1=O [compound 41] (cyclo(FELYAWE[3Pal][dP][Ac6c]))", "human glucagon-like peptide-1 receptor (GLP-1R) (Homo sapiens)", "not met"],
  ["CC(C)C[C@@H]1NC(=O)[C@H](CCC(=O)O)NC(=O)[C@H](Cc2ccccc2)NC(=O)C2(CCCCC2)NC(=O)[C@H]2CCCN2C(=O)[C@H](c2ccccc2)NC(=O)[C@H](CCC(=O)O)NC(=O)[C@H](Cc2c[nH]c3ccccc23)NC(=O)[C@H](C)NC(=O)[C@H](Cc2ccc(O)cc2)NC1=O [compound 50] (cyclo(FELYAWE[Phg][dP][Ac6c]))", "human glucagon-like peptide-1 receptor (GLP-1R) (Homo sapiens)", "not met"]
]}

All figures here come from patent US10730911B2.
